Attribution: patent US20190315854A1

Biological target: T1, sIL-6R (soluble IL-6 receptor; SBH Sciences) (human, UniProt P08887 20-365)
T1 construct: also called human IL-6R
T1 sequence: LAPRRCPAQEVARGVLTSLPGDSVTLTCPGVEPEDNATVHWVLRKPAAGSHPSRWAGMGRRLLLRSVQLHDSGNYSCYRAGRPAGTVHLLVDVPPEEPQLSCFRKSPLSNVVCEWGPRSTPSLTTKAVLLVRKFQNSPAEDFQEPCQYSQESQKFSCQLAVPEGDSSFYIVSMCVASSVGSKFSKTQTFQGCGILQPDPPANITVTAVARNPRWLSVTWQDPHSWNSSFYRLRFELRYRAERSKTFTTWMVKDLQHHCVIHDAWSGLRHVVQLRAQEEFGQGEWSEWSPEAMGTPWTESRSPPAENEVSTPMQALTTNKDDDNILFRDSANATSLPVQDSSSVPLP
Assay: SPR (BIAcore 3000), antibody on chip, sIL-6R analyte, 25 C
This section presents binders with their documented koff values.
Your reply should be a number followed by the unit it is expressed in.

Please review the entries below; each comes with its answer.
244# (antibody, human IgG1, kappa, V domains shown) VH: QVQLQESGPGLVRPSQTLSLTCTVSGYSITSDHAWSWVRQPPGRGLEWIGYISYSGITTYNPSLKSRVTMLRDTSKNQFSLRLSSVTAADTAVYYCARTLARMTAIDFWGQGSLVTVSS VL: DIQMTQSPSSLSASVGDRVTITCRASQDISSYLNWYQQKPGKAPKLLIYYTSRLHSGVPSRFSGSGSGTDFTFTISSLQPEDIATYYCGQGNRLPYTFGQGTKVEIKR	2.33e-05 s⁻¹
217# (antibody, human IgG1, kappa, V domains shown, also called Sample # 217) VH: QVQLQESGPGLVRPSQTLSLTCTVSGYSITSDHAWSWVRQPPGRGLEWIGYISYSGMITYNPSLKSRVTMLRDTSKNQFSLRLSSVTAADTAVYYCARCLARMTAMDYWGQGSLVTVSS VL: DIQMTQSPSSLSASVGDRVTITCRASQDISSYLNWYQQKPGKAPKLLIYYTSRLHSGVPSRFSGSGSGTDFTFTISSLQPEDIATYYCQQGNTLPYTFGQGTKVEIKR	0.000109 s⁻¹

Ask: # query: koff of entry 216# (antibody, human IgG1, kappa, V domains shown, also called Sample # 216) VH: QVQLQESGPGLVRPSQTLSLTCTVSGYSITSDHAWSWVRQPPGRGLEWIGYISYSGMITYNPSLKSRVTMLRDTSKNQFSLRLSSVTAADTAVYYCARSLARTTAIDFWGQGSLVTVSS VL: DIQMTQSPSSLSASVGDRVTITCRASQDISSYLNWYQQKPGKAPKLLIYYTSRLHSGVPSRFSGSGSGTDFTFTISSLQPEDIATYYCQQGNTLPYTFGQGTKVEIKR
Reply: 0.000266 s⁻¹
